# target-or-test-system: T1, MPDZ_12, O75970
# T1 sequence (O75970 1857-1958, limits assumed, looked up): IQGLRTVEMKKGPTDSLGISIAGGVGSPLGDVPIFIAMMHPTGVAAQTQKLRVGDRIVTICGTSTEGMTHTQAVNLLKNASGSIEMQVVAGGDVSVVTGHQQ
# protocol-summary: holdup assay
# Parameters: key: below the threshold = too weak to quantify, mostly under pKd 3.1 to 4
# protocol-conditions: plain residues with an end cap or a label only (N-terminal biotin on a linker: ado-ado)
measurement-type: pKd

1. FVFESRKEIL [TBPL1, P62380] = below the threshold
2. TNSKQGETTV [FZD1, Q9UP38] = below the threshold
3. RSPVATATSC [DUSP5, Q16690] = below the threshold
4. QKNKDREYYV [NRXN3, Q9HDB5] = below the threshold
5. RGKNRRQSIF [CDK18, Q07002] = 3.58
6. SSSVNVSSNL [CXCR1, P25024] = below the threshold
7. DFKHTKSFII [JAM2, P57087] = below the threshold
8. YAEKRMLTEV [KCNA6, P17658] = 3.55
9. NSTHNLKDYV [CLDN20, P56880] = below the threshold
10. SAGADSETHC [SLCO1B1, Q9Y6L6] = below the threshold
11. PKSNSSKEYV [CLDN7, O95471] = below the threshold
12. PAALPESTHM [SLC9A3, P48764] = below the threshold
13. MQILSKPEFI [NPSR1, Q6W5P4] = 3.56
14. LLQEEWETVM [PTH1R, Q03431] = below the threshold
15. MLPANYVEAI [NEB, P20929] = below the threshold
16. EFKQTSSFLV [JAM1, Q9Y624] = below the threshold
